Molecular target: T1, Human OSCAR (osteoclast-associated receptor), full length, on cells (human)
T1 chain: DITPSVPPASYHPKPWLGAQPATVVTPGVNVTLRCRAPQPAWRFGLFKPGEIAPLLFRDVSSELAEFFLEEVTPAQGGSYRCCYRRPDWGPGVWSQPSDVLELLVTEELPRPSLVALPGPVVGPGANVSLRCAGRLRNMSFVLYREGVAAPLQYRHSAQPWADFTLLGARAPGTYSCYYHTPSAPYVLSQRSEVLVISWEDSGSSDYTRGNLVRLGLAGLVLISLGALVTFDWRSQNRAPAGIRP
Test: cell-based or functional assay
For each entry below, report its IC50 (IL-8), ColI-induced IL-8 release from moDC, Donor 4 value.
Numbers only, in nM.

4F3B (antibody, V domains shown, Mouse anti-human OSCAR mAb (its isotype control is mIgG1); The heavy chain entry covers only VH-CH1 and the start of the hinge; It was fluorescein-labelled in the peptide array and Alexa Fluor 647-labelled in the flow binning; also called mAb 4F3B) VH: QVQLQQSGAELAKPGASVKMSCKASGFTFTSYWMHWVKQRPGQGLEWIGYINPSTDYTEYNQKFKDKATLTADKSSSTAYMQLSSLTSEDSAVYYCARRSPFAMDYWGQGTSVTVSS VL: DIVMTQSPSSLTVTAGEKVTMSCKSSQSLLNSGNQKNYLTWYQQKPGQPPKVLIYWASTRESGVPDRFTGSGSGTDFTLTISSVQAEDLAVYYCQNDYSYPLTFGTGTKLELKR :: 0.12

Let us examine a further case.
// query IC50 (IL-8), ColI-induced IL-8 release from moDC, Donor 4 value for entry 6F3A (antibody, V domains shown, Mouse anti-OSCAR mAb) VH: EVQLQQSGAELVKPGASVKLSCTASGFNIKDTYVHWVKQRPDQGLEWIGRIDPAIGNTKYDPKFRGKATITADSSSNTAYLQLSSLTSEDTAVYYCARLSYGNYGLDYSMDYWGQGTSVTVSS VL: DIVLTQSPATLSVTPGDSVSLSCRASQSITNNLHWYQQKSHESPRLLIKYASQSISGIPSRFRGSGSGTDFTLSINSVETEDFGVYFCQQSNTWPRTFGGGTKLEIKR
0.69
